# procedure-summary: method code G-GLC, from DOI: 10.1021/es00169a004
measured-quantity: logP

# smiles-data, measured-quantity, result
data = [
    ("Clc1cc(Cl)c(-c2c(Cl)c(Cl)c(Cl)c(Cl)c2Cl)c(Cl)c1Cl", "logP", 7.52),
]

====

# smiles-data, logP
records = [
    ("COCCCNc1nc(NC(C)C)nc(SC)n1", 2.96),
    ("CSc1nc(N=[N+]=[N-])nc(NC(C)C)n1", 3.27),
]

====

# reported logP; entries follow

# smiles-data, logP
rows = [
    ("Cc1ccccc1NS(=O)(=O)c1c(O)c(Cl)cc(Cl)c1Cl", 4.02),
    ("O=S(=O)(Nc1ccccc1)c1c(O)c(Cl)cc(Cl)c1Cl", 3.74),
    ("O=S(=O)(Nc1ccc(Cl)cc1)c1cc(Cl)cc(Cl)c1O", 3.66),
]

====

# smiles-data, logP
records = [
    ("O=c1cc(-c2ccccc2)oc2c1ccc1ccccc12", 4.82),
    ("Cc1cc(C)c(C)cc1C", 4.24),
    ("Brc1ccsc1", 2.59),
    ("O=[N+]([O-])c1ccc(O)c([N+](=O)[O-])c1", 1.79),
    ("c1ccc(-c2ccc(-c3ccccc3)cc2)cc1", 6.03),
]

====

# procedure-summary: method code SF, from Zhuang, J.; Mo, H.; An, F.; Yang, K. (1993). Determination of the water solubility and n-octanol/water partition coefficient of pesticide N-(2,4-dimethylphenyl)-N'-methylamidine. Huanjing Huaxue, …
measured-quantity: logP

# smiles-data, measured-quantity, result
records = [
    ("CNC=Nc1ccc(C)cc1C", "logP", 2.92),
]

====

# procedure-summary: method code SF, from DOI: 10.1034/j.1399-3011.2003.00037.x, PMID: 12492901
# study-conditions: pH 11.0
measured-quantity: logD

# compound, measured-quantity, result
measured = [
    ("CC(=O)NC(Cc1c[nH]c2ccccc12)C(N)=O (stereo unspecified)", "logD", 0.16),
]

====

# procedure-summary: method code SF, from DOI: 10.1016/j.jiec.2010.03.003
measured-quantity: logP

# smiles-data, measured-quantity, result
data = [
    ("CCOC(C)(C)C", "logP", 1.71),
    ("CC(C)OC(C)C", "logP", 1.94),
    ("CCC(C)(C)OC", "logP", 1.81),
    ("C=COCCC", "logP", 2),
]

====

# procedure-summary: method code SF-RC, from DOI: 10.1016/j.bmc.2015.06.036, PMID: 26145817
# study-conditions: pH 7.4
# reported logD; entries follow
measured-quantity: logD

# smiles-data, result
records = [
    ("CCN(CCOCCF)c1cc(C)nc2c(-c3ccc(Cl)cc3Cl)c(C)nn12", 3.8),
    ("CCN(CCCCF)c1cc(C)nc2c(-c3ccc(Cl)cc3Cl)c(C)nn12", 2.81),
]

====

# procedure-summary: method code SF, from DOI: 10.2307/3575246, PMID: 7367588
measured-quantity: logP

# compound, result
rows = [
    ("O=C(Cn1ccnc1[N+](=O)[O-])NCC(O)CO (configuration not stated)", -1.85),
    ("CS(=O)CCn1ccnc1[N+](=O)[O-] (configuration not stated)", -1.22),
]
